Origin of the recorded values: patent US20260207450A1

System: M. restricta ATCC MYA-4611
Experiment: Disc-diffusion assay, perfumery materials in DMSO, M. restricta
Type: cell-based, Malassezia restricta
Conditions: Malassezia restricta, 144 h
Exercise: state measured zone of inhibition at 0.2 % for each of the molecules provided.
Provide the reading as a plain figure in mm.

// fetch zone of inhibition at 0.2 % for COC(=O)c1c(C)cc(O)c(C)c1O ; system: M. restricta ATCC MYA-4611
6.3

// fetch zone of inhibition at 0.2 % for CCCCCCCCCCO ; system: M. restricta ATCC MYA-4611
8.5

// fetch zone of inhibition at 0.2 % for C=CCCCCCCCCC=O ; system: M. restricta ATCC MYA-4611
6.5

// fetch zone of inhibition at 0.2 % for COc1ccc(CC(C)C=O)cc1 (racemic) ; system: M. restricta ATCC MYA-4611
6.6

// fetch zone of inhibition at 0.2 % for CC(C)=CCC/C(C)=C/C=O ; system: M. restricta ATCC MYA-4611
6.2

// fetch zone of inhibition at 0.2 % for CCCCCCCCC/C=C/C=O ; system: M. restricta ATCC MYA-4611
10
